experimental.target: AQ STING (G230A-R293Q) (Homo sapiens, UniProt Q86WV6, G230A/H232R/R293Q)
Construct: truncated human WT STING or AQ STING (amino acid residues 140-343); 8xHis (N, cleaved yes); SUMO (N, cleaved yes); made in house; host or cells: E. coli Rosetta-gami B (DE3)
Sequence (Q86WV6 140-343 G230A/H232R/R293Q): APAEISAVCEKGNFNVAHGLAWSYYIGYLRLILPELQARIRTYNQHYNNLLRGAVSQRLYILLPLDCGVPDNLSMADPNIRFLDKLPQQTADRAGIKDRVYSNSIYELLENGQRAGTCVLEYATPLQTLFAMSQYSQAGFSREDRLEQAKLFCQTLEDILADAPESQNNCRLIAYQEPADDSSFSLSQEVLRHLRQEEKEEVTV
measurement.notes: Differential Scanning Fluorimetry with AQ STING
Type: binding
test.settings: thermal shift, truncated human AQ STING 0.1 mg/ml, 150 μM CDN; read-out: DSF ΔTm AQ STING
Exercise: state measured ΔTm at 150 µM for each of the compounds provided.
Just the number in °C, nothing appended.

So, Nc1nc2c(ncn2[C@@H]2O[C@@H]3COP(=O)(O)OC4C(F)[C@H](n5cnc6c(N)ncnc65)O[C@@H]4COP(=O)(O)COC3C2F)c(=O)[nH]1 (stereo partly drawn) [Example 12] ? Its ΔTm at 150 µM was 17.3

So, Nc1nc2c(ncn2[C@@H]2O[C@@H]3COP(=O)(O)COC4C(O)[C@H](n5cnc6c(N)ncnc65)O[C@@H]4COP(=O)(O)OC3C2F)c(=O)[nH]1 (stereo partly drawn) [Example 5] ? Its ΔTm at 150 µM was 12

So, Nc1nc2c(ncn2[C@@H]2O[C@@H]3COP(=O)(O)OC4C(F)[C@H](n5cnc6c(N)ncnc65)O[C@@H]4COP(=O)(O)COC3C2O)c(=O)[nH]1 (stereo partly drawn) [Example 4] ? Its ΔTm at 150 µM was 13.6

These measurements were taken from patent US11292812B2.
